# Test system: RET(M918T);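 further: KINOMEscan scanMAX binding as percent activity remaining versus control; lower means stronger binding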
# measurement parameters: Compound Concentration (nM):1000
# Percent Control per record follows
metric name: Percent Control (%)

INSERT INTO measurements (compound, target_desc, metric_name, endpoint_unit, experimental_result) VALUES
  ('NS(=O)(=O)c1ccc(N/N=C2\C(=O)Nc3ccc(-c4cnco4)cc32)cc1 [GW276655]', 'RET(M918T)', 'Percent Control', '%', 59),
  ('Cl.O=S1CCN(Cc2ccc(-c3ccc4ncnc(Nc5ccc(OCc6ccccc6)c(F)c5)c4c3)o2)CC1 [GW576924A]', 'RET(M918T)', 'Percent Control', '%', 100),
  ('NS(=O)(=O)c1ccc(N/N=C2\C(=O)Nc3ccc(C(=O)NCc4ccncc4)cc32)cc1 [GW300657X]', 'RET(M918T)', 'Percent Control', '%', 80),
  ('NS(=O)(=O)c1ccc(N/N=C2\C(=O)Nc3ccc(Cl)cc32)cc1 [GW280670X]', 'RET(M918T)', 'Percent Control', '%', 100),
  ('COc1cc2ncn(-c3cc(O[C@H](C)c4ccccc4Cl)c(C(N)=O)s3)c2cc1OC [GSK237701A]', 'RET(M918T)', 'Percent Control', '%', 51),
  ('NS(=O)(=O)c1ccc(Nc2ncc(-c3ccccc3)o2)cc1 [GW572399X]', 'RET(M918T)', 'Percent Control', '%', 100),
  ('COc1cc2ncnc(Nc3ccc4c(cnn4Cc4ccccc4)c3)c2cc1OC.Cl [GW282449A]', 'RET(M918T)', 'Percent Control', '%', 90),
  ('COC(=O)Nc1nc2ccc(Oc3ccc(NC(=O)Nc4cc(C(F)(F)F)ccc4F)cc3)cc2s1.Cl [GW693917A]', 'RET(M918T)', 'Percent Control', '%', 0.8),
  ('COc1cc(C=NNc2ncnc3c2cnn3-c2ccccc2)ccc1O [GW513184X]', 'RET(M918T)', 'Percent Control', '%', 18),
  ('Cl.O=C(O[C@H]1CN[C@H](C#Cc2cc3ncnc(Nc4ccc5c(cnn5Cc5ccccc5)c4)c3s2)C1)N1CCOCC1 [GSK200398A]', 'RET(M918T)', 'Percent Control', '%', 100),
  ('C[C@@H](Oc1cc(-n2cnc3ccc(OC4CCN(C)CC4)cc32)sc1C(N)=O)c1ccccc1Cl [GSK579289A]', 'RET(M918T)', 'Percent Control', '%', 99),
  ('CCS(=O)(=O)c1ccc(OC)c(Nc2ncc(-c3cccc(F)c3)o2)c1 [GW621970X]', 'RET(M918T)', 'Percent Control', '%', 52),
  ('CCn1c(-c2nonc2N)nc2c(C#CC(C)(C)O)nc(OCCNC)cc21.Cl [GSK949675]', 'RET(M918T)', 'Percent Control', '%', 73),
  ('Cl.O=C(Nc1ccc(Oc2ccc3[nH]c(NC(=O)c4ccco4)nc3c2)cc1)Nc1cc(C(F)(F)F)ccc1F [GW683134A]', 'RET(M918T)', 'Percent Control', '%', 0.7),
  ('CC1=C(C(=O)Nc2ccc3[nH]ncc3c2)C(c2ccc(Cl)c(Cl)c2)CC(=O)N1 (centres unmarked) [GSK299115A]', 'RET(M918T)', 'Percent Control', '%', 74),
  ('O=C1Nc2ccc(C(=O)c3ccco3)cc2C1=Cc1cc(Cl)c(O)c(Cl)c1 [GW406108X]', 'RET(M918T)', 'Percent Control', '%', 56),
  ('COc1cccc(-c2c[nH]c3c(N/N=C/c4ccncc4)ncnc23)c1 [GW814408X]', 'RET(M918T)', 'Percent Control', '%', 79),
  ('COc1cc(C)c(N(C)C(=O)CN(C)C)cc1Nc1nc(Nc2cccc(F)c2C(N)=O)c2cc[nH]c2n1 [GSK2219385]', 'RET(M918T)', 'Percent Control', '%', 100),
  ('CCS(=O)(=O)c1ccc(OC)c(Nc2ncc(-c3cccc(OC)c3)o2)c1 [GW580509X]', 'RET(M918T)', 'Percent Control', '%', 50),
  ('CCc1ccc(Oc2nccc(-c3c(-c4ccc(F)cc4)ncn3C3CCNCC3)n2)cc1 [SB-242719]', 'RET(M918T)', 'Percent Control', '%', 93),
  ('COc1ccc(COc2ccc(Cc3cnc(N)nc3N)cc2OC)cc1 [GW632580X]', 'RET(M918T)', 'Percent Control', '%', 93),
  ('COc1ccc2cc(-c3c(-c4ccncc4)nc(-c4ccc(S(C)(=O)=O)cc4C)n3C)ccc2c1 [SB-633825]', 'RET(M918T)', 'Percent Control', '%', 72),
  ('Cc1cc(O)cc(C)c1/C=C/c1cncc(C(N)=O)c1 [GW435821X]', 'RET(M918T)', 'Percent Control', '%', 100),
  ('CN(C)CCNC(=O)Nc1ccc(N(C)c2ccnc(Nc3ccc(CS(C)(=O)=O)cc3)n2)cc1.Cl [GW830900A]', 'RET(M918T)', 'Percent Control', '%', 79),
  ('COc1ccccc1-c1cc(/C=C2\C(=O)Nc3ncc(Br)cc32)cc(Br)c1O [GW442130X]', 'RET(M918T)', 'Percent Control', '%', 100),
  ('CN(C)c1cc2c(Nc3ccc4c(cnn4Cc4ccccc4)c3)ncnc2cn1 [GW282974X]', 'RET(M918T)', 'Percent Control', '%', 82);
